test system: SN12C renal; test: NCI-60 one-dose screen, 48 h; conditions: 10 µM
About 83,000 compounds went through this panel and 20% of them were active in at least one assay; those are over-represented in the sample as a whole. Calls of active or inactive are those of the source. The calls were made as follows: active = growth percent below 10; inactive = the rest.
Entry note: the call must match one of active, inactive

CC(=O)Nc1ccc(-c2cn(-c3cccc(C(=O)Nc4ccc(F)c(C(F)(F)F)c4)c3)nn2)cn1
inactive
O=C1CCC(N2Cc3c(C#CCCCNC(=O)c4ccc(NC(=O)[C@@H]5NC6(CCCCC6)[C@@]6(C(=O)Nc7cc(Cl)ccc76)[C@H]5c5cccc(Cl)c5F)cc4)cccc3C2=O)C(=O)N1 (some centres undefined)
inactive
COc1ccc(-c2cc(-c3cc(C(=O)c4ccc(Br)cc4)n4ccc(C)cc34)nc(N)c2C#N)cc1
inactive

Task: How did this test come out for "O=C(CNc1nc(-c2ccccc2)cs1)Nc1ccc(Cl)cc1" ?
Output: active

Task: How did this test come out for "Cc1noc2c(Cc3ccccc3)nn(CC(=O)N/N=C/c3ccc(Cl)cc3)c(=O)c12" ?
Output: active

Task: How did this test come out for "Cc1nc(Nc2nc(C)c3ccc(OCCN4CCOCC4)cc3n2)[nH]c(=O)c1C" ?
Output: active

Task: How did this test come out for C=C1CCC2C3(C)COC(c4c(F)cccc4F)OC3CCC2(C)C1CC(O)C1=CCOC1=O (centres undefined) ?
Output: inactive

Task: How did this test come out for "CC1(C)CC[C@]2(C(=O)Nc3ccccc3)CC[C@]3(C)C(=CC[C@@H]4[C@@]5(C)CC[C@H](N)C(C)(C)[C@@H]5CC[C@]43C)[C@H]2C1" ?
Output: inactive

Task: How did this test come out for "Cc1cc(C)nc(/N=C(\N)Nc2ccc(S(=O)(=O)Nc3nc(C)cc(C)n3)cc2)n1" ?
Output: inactive

---

test system: OVCAR-3 ovarian; assay: NCI-60 one-dose screen, 48 h (100 = growth as untreated, 0 = no growth, -100 = all killed); details: 10 µM
Compounds without any hit were thinned out: in the full panel of roughly 83,000, 20% have a hit.
OBSERVED PROPERTY: growth (%)
Response body: numeric value in %, unit text excluded.

O=C(Nc1cc(Cl)cc(Cl)c1)Nc1cc(Cl)cc(Cl)c1
-31.5
CC(=O)NS(=O)(=O)c1ccc(NC(=O)CSC2=NC(c3ccccc3)C(C(C)=O)=C(C)N2)cc1 (stereo not drawn)
133
O=C(N=Nc1c(O)[nH]c2ccc(Br)cc12)c1ccc2nc(-c3ccccc3)[nH]c2c1
-69.7
CCOC(=O)C(Cc1ccccc1)N1C(=O)/C(=C/N2N=C(c3ccc(OC)cc3)CC2c2ccc3ccccc3c2)SC1=S (stereo not drawn)
15.1

Task: Kindly indicate its recorded growth. Item: CC(=O)OC[C@@]1(C)C2CC[C@]3(C)C(CC=C4C5CC(C)(C)CC[C@]5(C(=O)Nc5ccccc5)CC[C@]43C)[C@@]2(C)C[C@@H](OC(C)=O)[C@@H]1OC(C)=O (stereo partly drawn)
Output: 38.9

Task: Kindly indicate its recorded growth. Item: "CC(=O)Nc1ccc(-c2cn(-c3cccc(C(=O)Nc4cccc(OC(F)(F)F)c4)c3)nn2)cn1"
Output: 110

Task: Kindly indicate its recorded growth. Item: "Cc1ccc(-c2nc3ccc(C(=O)N=Nc4c(O)[nH]c5ccc([N+](=O)[O-])cc45)cc3[nH]2)cc1"
Output: 21.9

Task: Kindly indicate its recorded growth. Item: "O=C(N/N=C/c1ccc(B(O)O)o1)c1[nH]c2ccc(Br)cc2c1-c1ccccc1"
Output: 14
